- Test system: AS120
- test-method-notes: qHTS profiling for inhibitors of Plasmodium falciparum proliferation (AID 504749); note: nearly all actives have a fitted effect of over 60% in size; note: potency is the fitted concentration of half-maximal effect
- condition-description: P. falciparum in erythrocytes, SYBR Green DNA, 72 h; series mostly up to 28.7 µM
Results filed as inconclusive are left out. Calls of active or inactive are those of the source. Calls come from the whole dose curve; as a rule, active = well fitted inhibition curve with a large enough effect; inconclusive = small, poorly fitted or top-dose-only effect; inactive = flat fitted curve, though single readings scatter.
property-name: Potency

See these solved cases before continuing.
CCN(CC)C(=O)N[C@@H]1C=C2c3cccc4[nH]cc(c34)C[C@H]2N(C)C1 = 12.6 µM (active)
C#C[C@]1(O)CC[C@H]2[C@@H]3CCC4=CC(=O)CCC4(C)[C@H]3CCC21C (stereo partly drawn) = inactive
CN1C2CCC1C(C(=O)O)C(OC(=O)c1ccccc1)C2 (stereo not drawn) = inactive
Cc1ccc2c(c1)[C@@H]1CN(C)CC[C@H]1N2 = inactive
CCCCCc1cc(O)c2c(c1)OC(C)(C)C1CC=C(C)CC21 (stereo not drawn) = 2.24 µM (active)
OC[C@@H](O)[C@H]1O[C@@H]2OC(C(Cl)(Cl)Cl)O[C@H]2[C@H]1O (stereo partly drawn) = inactive

Input: Supply measured Potency of CC(=O)O[C@H]1C[C@H](O[C@H]2[C@@H](O)CC(O[C@H]3[C@@H](O)C[C@H](O[C@H]4CC[C@@]5(C)[C@H](CC[C@@H]6[C@@H]5CC[C@]5(C)[C@@H](C7=CC(=O)OC7)CC[C@]65O)C4)O[C@@H]3C)O[C@@H]2C)O[C@H](C)[C@H]1O[C@@H]1O[C@H](CO)[C@@H](O)[C@H](O)[C@H]1O (stereo partly drawn) in your reply.
Output: inactive

Input: Supply measured Potency of `C#CCN1CC(=O)N(COC(=O)[C@@H]2[C@@H](C=C(C)C)C2(C)C)C1=O` in your reply.
Output: inactive

----------
- test-method-notes: Cell Viability - LYMP2-015 (AID 971);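 note: cells exposed to compound for 24 h; nearly all actives have a fitted effect of over 55% in size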; note: potency is the fitted concentration of half-maximal effect
- condition-description: LYMP2-015 lymphoblastoid cell viability; series mostly up to 92.2 µM
Records with an inconclusive call do not appear. Activity calls are given as the source filed them. Calls follow the shape of the dose curve; as a rule, active = well fitted cell-killing curve with a large enough effect; inconclusive = small, poorly fitted or top-dose-only effect; inactive = flat fitted curve, though single readings scatter.
property-name: Potency

See these solved cases before continuing.
Oc1c(Br)c(Br)c(Br)c(Br)c1Br = inactive
[CH3][Hg][Cl] = 3.16 µM (active)
O=C(CCl)c1ccccc1 = 7.94 µM (active)
FC(F)(F)c1ccc(Cl)cc1 = inactive
COP(=O)(OC)O/C(=C\Cl)c1cc(Cl)c(Cl)cc1Cl = inactive

Input: Supply measured Potency of `ClC1=C(Cl)C(Cl)(Cl)C(Cl)=C1Cl` in your reply.
Output: 3.98 µM (active)

Input: Supply measured Potency of `O=Nc1ccc(Nc2ccccc2)cc1` in your reply.
Output: 3.98 µM (active)

Input: Supply measured Potency of `N#CC(Cl)Cl` in your reply.
Output: 12.6 µM (active)

Input: Supply measured Potency of `Clc1ccc(C(c2ccc(Cl)cc2)C(Cl)Cl)cc1` in your reply.
Output: inactive

----------
- system-under-test: Luciferin 4-monooxygenase (Photinus pyralis) (UniProt P08659)
- Sequence (P08659 whole entry, looked up): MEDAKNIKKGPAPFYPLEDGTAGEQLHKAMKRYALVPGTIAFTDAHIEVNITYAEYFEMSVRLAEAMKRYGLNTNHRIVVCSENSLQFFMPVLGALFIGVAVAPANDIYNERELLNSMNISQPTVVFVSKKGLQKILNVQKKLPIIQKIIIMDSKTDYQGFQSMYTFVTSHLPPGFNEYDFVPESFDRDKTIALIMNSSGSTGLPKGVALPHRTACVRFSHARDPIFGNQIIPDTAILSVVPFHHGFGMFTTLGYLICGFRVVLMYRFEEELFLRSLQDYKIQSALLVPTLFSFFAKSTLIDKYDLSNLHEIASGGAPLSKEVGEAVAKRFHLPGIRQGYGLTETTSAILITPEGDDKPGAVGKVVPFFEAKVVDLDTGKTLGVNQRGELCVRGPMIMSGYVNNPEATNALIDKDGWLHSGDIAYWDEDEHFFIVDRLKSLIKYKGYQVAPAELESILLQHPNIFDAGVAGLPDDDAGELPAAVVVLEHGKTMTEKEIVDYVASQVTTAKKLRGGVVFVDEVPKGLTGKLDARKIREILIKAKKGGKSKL
- test-method-notes: Biochemical firefly luciferase enzyme assay for NPC (AID 624030); note: nearly all actives have a fitted effect of over 70% in size
- condition-description: purified P. pyralis luciferase, luminescence, 5 min; series mostly up to 58.6 µM
Inconclusive results are not listed. Active and inactive are the calls of the source. Calls follow the shape of the dose curve; as a rule, active = well fitted inhibition curve with a large enough effect; inconclusive = small, poorly fitted or top-dose-only effect; inactive = flat fitted curve, though single readings scatter.
Lab note: assign the record to one of 1.0 (active), 0.0 (inactive)

Input: Hi, do you know how `COc1cc(CCN)c(OC)cc1Br` came out in this test?
Output: 0.0

Input: Hi, do you know how C=CCC1(C(C)CCC)C(=O)NC(=O)NC1=O (stereo not given) came out in this test?
Output: 0.0

Input: Hi, do you know how `C=C1Nc2ccccc2C(=O)N1c1ccccc1C` came out in this test?
Output: 0.0

Input: Hi, do you know how Oc1ccc2c3c1O[C@H]1[C@@H](O)C=CC4[C@@H](C2)NCC[C@@]341 (stereo not given in full) came out in this test?
Output: 0.0

Input: Hi, do you know how `O=C1[O][Sb-]23[O]C(=O)C([O]2)C2[O][Sb-]4([O]C(=O)C([O]4)C1[O]3)[O]C2=O` came out in this test?
Output: 0.0

Input: Hi, do you know how `CC(=O)[C@@]1(O)CC[C@@H]2[C@@H]3CCC4=CC(=O)CC[C@]4(C)[C@]3(F)[C@@H](O)C[C@@]21C` came out in this test?
Output: 0.0

Input: Hi, do you know how CC(C)CC1C(=O)N2CCCC2C2(O)OC(NC(=O)C3CC4c5cccc6[nH]cc(c56)CC4N(C)C3)(C(C)C)C(=O)N12 (stereo not given) came out in this test?
Output: 0.0

Input: Hi, do you know how CCON=C(CC)C1=C(O)CC(c2c(C)cc(C)cc2C)CC1=O (stereo not given) came out in this test?
Output: 0.0

Input: Hi, do you know how `CCC(=O)O[C@@](Cc1ccccc1)(c1ccccc1)[C@H](C)CN(C)C` came out in this test?
Output: 0.0

Input: Hi, do you know how CN1C2CCC1C(C(=O)O)C(OC(=O)c1ccccc1)C2 (stereo not given) came out in this test?
Output: 0.0

Input: Hi, do you know how C[C@]12CCC3C(CCC4=CC(=O)CC[C@@H]43)C1CCC2O (stereo not given in full) came out in this test?
Output: 0.0

Input: Hi, do you know how C[C@]12CCC3C(CCC4=C(Cl)C(=O)CC[C@@]43C)C1CCC2O (stereo not given in full) came out in this test?
Output: 0.0

Input: Hi, do you know how `[S]=[Sb][S][Sb]=[S]` came out in this test?
Output: 0.0

Input: Hi, do you know how COc1ccc2c3c1OC1C(O)C=CC4[C@@H](C2)N(C)CC[C@]314 (stereo not given in full) came out in this test?
Output: 0.0

Input: Hi, do you know how `C[C@@H](N)[C@@H](O)c1ccc(O)c(O)c1` came out in this test?
Output: 0.0

Input: Hi, do you know how `C#CCN1CC(=O)N(COC(=O)[C@@H]2[C@@H](C=C(C)C)C2(C)C)C1=O` came out in this test?
Output: 0.0

Input: Hi, do you know how CCC1CC2CC3c4[nH]c5ccc(OC)cc5c4CCN(C2)C13 (stereo not given) came out in this test?
Output: 0.0

Input: Hi, do you know how CN1CC[C@]23c4c5ccc(O)c4OC2C(O)CCC3[C@H]1C5 (stereo not given in full) came out in this test?
Output: 0.0

Input: Hi, do you know how C[C@]12CCC3[C@@H](CCC4=CC(=O)CC[C@@]43C)C1CCC2OC(=O)CCc1ccccc1 (stereo not given in full) came out in this test?
Output: 0.0

Input: Hi, do you know how COc1ccc2c3c1O[C@H]1[C@@H](O)C=C[C@H]4C(C2)NCCC341 (stereo not given in full) came out in this test?
Output: 0.0

Input: Hi, do you know how CC1[C@H]2Cc3ccc(O)cc3[C@]1(C)CCN2CCc1ccccc1 (stereo not given in full) came out in this test?
Output: 0.0

Input: Hi, do you know how CC(=O)O[C@H]1C[C@H](O[C@H]2[C@@H](O)CC(O[C@H]3[C@@H](O)C[C@H](O[C@H]4CC[C@@]5(C)[C@H](CC[C@@H]6[C@@H]5CC[C@]5(C)[C@@H](C7=CC(=O)OC7)CC[C@]65O)C4)O[C@@H]3C)O[C@@H]2C)O[C@H](C)[C@H]1O[C@@H]1O[C@H](CO)[C@@H](O)[C@H](O)[C@H]1O (stereo not given in full) came out in this test?
Output: 0.0

Input: Hi, do you know how CC(C)=CCN1CC[C@@]2(C)c3cc(O)ccc3C[C@@H]1C2C (stereo not given in full) came out in this test?
Output: 0.0

Input: Hi, do you know how CN(C)C1C(=O)C(C(N)=O)C(=O)C2(O)C(=O)C3C(=O)c4c(O)cccc4C(C)(O)C3C(O)C12 (stereo not given) came out in this test?
Output: 0.0

Input: Hi, do you know how `CC[C@]1([C@H]2O[C@@H]([C@@H]3O[C@](O)(CO)[C@@H](C)C[C@H]3C)C[C@H]2C)CC[C@@H]([C@]2(C)CC[C@@]3(C[C@@H](O)[C@@H](C)[C@@H]([C@H](C)[C@H](OC)[C@H](C)C(=O)O)O3)O2)O1` came out in this test?
Output: 0.0

Input: Hi, do you know how Oc1ccc2c3c1OC1C(O)C=CC4[C@@H](C2)NCC[C@]314 (stereo not given in full) came out in this test?
Output: 0.0

Input: Hi, do you know how CC1CC[C@@]2(NC1)OC1CC3C4CC[C@@H]5CC(O)CC[C@@]5(C)C4CC[C@]3(C)C1C2C (stereo not given in full) came out in this test?
Output: 0.0

Input: Hi, do you know how `[O-][N+](=Nc1ccccc1)c1ccccc1` came out in this test?
Output: 1.0

Input: Hi, do you know how `CNC1=CN(O)C(c2ccccc2)=c2cc(Cl)ccc2=N1` came out in this test?
Output: 0.0

Input: Hi, do you know how COC(=O)C1C(OC(=O)c2ccccc2)CC2CCC1N2C (stereo not given) came out in this test?
Output: 0.0

Input: Hi, do you know how CCCCCCC(=O)O[C@H]1CC[C@H]2[C@@H]3CCC4CC(=O)C=C(C)[C@]4(C)[C@H]3CC[C@]12C (stereo not given in full) came out in this test?
Output: 0.0

Input: Hi, do you know how C=CCC1(O)CCC2C3CCC4=CC(=O)CCC4=C3C=CC21C (stereo not given) came out in this test?
Output: 0.0

Input: Hi, do you know how CCCCCc1cc(O)c2c(c1)OC(C)(C)C1CC=C(C)CC21 (stereo not given) came out in this test?
Output: 0.0

Input: Hi, do you know how CC12CCC3C4CCC(=O)C(O)=C4CCC3C1CCC2OC(=O)CCC1CCCC1 (stereo not given) came out in this test?
Output: 0.0

Input: Hi, do you know how Clc1ccc([C@H]2CC3CCC2N3)cn1 (stereo not given in full) came out in this test?
Output: 0.0

Input: Hi, do you know how C=CC[C@]1(O)CCC2C3CCC4=CCCCC4C3CCC21C (stereo not given in full) came out in this test?
Output: 0.0

Input: Hi, do you know how CCCCCC(O)C1C(=O)OC(C)C(O)\C=C/C=C\C=C/C=C\C=C(\C)C(O)C(O)C(O)CC(O)CC(O)CC(O)CC(O)CC1O (stereo not given) came out in this test?
Output: 0.0

Input: Hi, do you know how CC(C)CCC(=O)OC1CCC2C3CCC4=CC(=O)CC[C@]4(C)C3CC[C@]12C (stereo not given in full) came out in this test?
Output: 0.0

Input: Hi, do you know how CN1CC[C@]23c4c5ccc(O)c4OC2C(O)C=CC3[C@H]1C5 (stereo not given in full) came out in this test?
Output: 0.0

Input: Hi, do you know how `O=C1OC(c2cc(I)c(O)c(I)c2)(c2cc(I)c(O)c(I)c2)c2ccccc21` came out in this test?
Output: 1.0

Measured values drawn from PubChem BioAssay (NCATS) for this set.
